System: MIA PaCa-2 pancreatic cancer cells
Test: MTT antiproliferative assay, MIA PaCa-2
Type: cell-based
Settings: Homo sapiens, MIA PaCa-2; MTT assay; cancer cell line; mean of three independent experiments ± S.E.M.; read-out: IC50 MIA PaCa-2 Pancreatic
Labelling field: enter Condition met if recorded IC50 is less than 40 µM. Enter Condition not met if it equals or exceeds that cut-off.

Exam item: Please let me know if COc1cc(CO)cc(OC)c1OC1OC(COC(=O)c2ccccc2I)C(O)C(O)C1O (centres unmarked) shows IC50 below 40 µM.
Marked response: Condition met

Exam item: And then COc1cc(CO)cc(OC)c1OC1OC(COC(=O)c2ccc(C)cc2)C(O)C(O)C1O (centres unmarked) , what is it?
Marked response: Condition met

Exam item: And then COc1cc(CO)ccc1OC1OC(COC(=O)c2cc(OC)c(OC)c(OC)c2)C(O)C(O)C1O (centres unmarked) , what is it?
Marked response: Condition met

Exam item: And then COc1cc(OC)cc(C(=O)OCC2OC(Oc3c(OC)cc(CO)cc3OC)C(O)C(O)C2O)c1 (centres unmarked) , what is it?
Marked response: Condition not met

Exam item: And then COc1cc(CO)ccc1OC1OC(COC(=O)c2cccnc2)C(O)C(O)C1O (centres unmarked) , what is it?
Marked response: Condition met

Exam item: And then COc1cc(CO)ccc1OC1OC(COC(=O)c2ccc(F)cc2)C(O)C(O)C1O (centres unmarked) , what is it?
Marked response: Condition met

Exam item: And then COc1cc(CO)cc(OC)c1OC1OC(COC(=O)c2ccc(F)cc2)C(O)C(O)C1O (centres unmarked) , what is it?
Marked response: Condition not met

###

Tested on: MIA PaCa-2 pancreatic cancer cells
Assay: MTT antiproliferative assay, MIA PaCa-2
Assay type: cell-based
Details: Homo sapiens, MIA PaCa-2; MTT assay; cancer cell line; mean of three independent experiments ± S.E.M.; read-out: IC50 MIA PaCa-2 Pancreatic
Give pIC50 for every item shown.
Quick note: pIC50 means taking -log10 of the concentration in moles per liter.

Exam item: GET /values?readout=pIC50&system=MIA PaCa-2 pancreatic cancer cells&item= COc1cc(CO)cc(OC)c1OC1OC(COC(=O)c2ccccc2)C(O)C(O)C1O (stereo not drawn) [Compound 9j]
Marked response: 4.34

Exam item: And then COc1cc(CO)ccc1OC1OC(COC(=O)c2ccccc2I)C(O)C(O)C1O (stereo not drawn) [Compound 9g] , what is it?
Marked response: 4.63

Exam item: And then COc1cc(CO)ccc1OC1OC(COC(=O)c2ccc(C)cc2)C(O)C(O)C1O (stereo not drawn) [Compound 9c] , what is it?
Marked response: 4.87

Exam item: And then CC[C@@]1(O)C(=O)OCc2c1cc1n(c2=O)Cc2cc3ccccc3nc2-1 [Camptothecin, camptothecin, reference compound] , what is it?
Marked response: 5.37

Exam item: And then COc1cc(C(=O)OC[C@H]2O[C@@H](Oc3ccc(CO)cc3OC)[C@H](O)[C@@H](O)[C@@H]2O)ccc1O [Compound 10] , what is it?
Marked response: 4.55

Exam item: And then COc1cc(OC)cc(C(=O)OCC2OC(Oc3ccc(CO)cc3OC)C(O)C(O)C2O)c1 (stereo not drawn) [Compound 9d] , what is it?
Marked response: 4.35

###

Give melting point for every item shown.

Exam item: I have this compound here, COc1cc(CO)ccc1OC1OC(COC(=O)c2ccc(C)cc2)C(O)C(O)C1O (stereo not shown) [Compound 9c] , and I need its recorded melting point.
Marked response: 228 to 230 °C

Exam item: And then COc1cc(CO)cc(OC)c1OC1OC(COC(=O)c2ccccc2)C(O)C(O)C1O (stereo not shown) [Compound 9j] , what is it?
Marked response: 180 to 182 °C

Exam item: And then COc1cc(C(=O)OC[C@H]2O[C@@H](Oc3ccc(CO)cc3OC)[C@H](O)[C@@H](O)[C@@H]2O)ccc1O [Compound 10] , what is it?
Marked response: 200 to 202 °C

Exam item: And then COc1cc(CO)ccc1OC1OC(COC(=O)c2cc([N+](=O)[O-])cc([N+](=O)[O-])c2)C(O)C(O)C1O (stereo not shown) [Compound 9i] , what is it?
Marked response: 186 to 188 °C

Exam item: And then COc1cc(CO)ccc1OC1OC(COC(=O)c2cc(OC)c(OC)c(OC)c2)C(O)C(O)C1O (stereo not shown) [Compound 9e] , what is it?
Marked response: 168 to 170 °C

Exam item: And then COc1cc(CO)ccc1OC1OC(COC(=O)c2ccccc2I)C(O)C(O)C1O (stereo not shown) [Compound 9g] , what is it?
Marked response: 128 to 130 °C

Exam item: And then COc1cc(OC)cc(C(=O)OCC2OC(Oc3ccc(CO)cc3OC)C(O)C(O)C2O)c1 (stereo not shown) [Compound 9d] , what is it?
Marked response: 199 to 201 °C

Exam item: And then COc1cc(OC)cc(C(=O)OCC2OC(Oc3c(OC)cc(CO)cc3OC)C(O)C(O)C2O)c1 (stereo not shown) [Compound 9l] , what is it?
Marked response: 131 to 133 °C

Exam item: And then COc1cc(CO)ccc1OC1OC(COC(=O)c2ccccc2)C(O)C(O)C1O (stereo not shown) [Compound 9b] , what is it?
Marked response: 187 to 189 °C

Exam item: And then COc1cc(CO)cc(OC)c1OC1OC(COC(=O)c2ccc(C)cc2)C(O)C(O)C1O (stereo not shown) [Compound 9k] , what is it?
Marked response: 201 to 203 °C

Exam item: And then COc1cc(CO)ccc1OC1OC(COC(=O)c2cccnc2)C(O)C(O)C1O (stereo not shown) [Compound 9h] , what is it?
Marked response: 194 to 196 °C

Exam item: And then COc1cc(CO)cc(OC)c1OC1OC(COC(=O)c2ccc(F)cc2)C(O)C(O)C1O (stereo not shown) [Compound 9m] , what is it?
Marked response: 170 to 172 °C

Exam item: And then COc1cc(CO)cc(OC)c1OC1OC(COC(=O)c2ccccc2I)C(O)C(O)C1O (stereo not shown) [Compound 9n] , what is it?
Marked response: 124 to 126 °C

###

System: DU145 prostate cancer cells
Assay: MTT antiproliferative assay, DU145
Assay type: cell-based
Settings: Homo sapiens, DU-145; MTT assay; cancer cell line; mean of three independent experiments ± S.E.M.; read-out: IC50 DU145 Prostate
MEASUREMENT NAME: IC50

Exam item: I have this compound here, COc1cc(CO)cc(OC)c1OC1OC(COC(=O)c2ccccc2)C(O)C(O)C1O (stereo not drawn) [Compound 9j] , and I need its recorded IC50.
Marked response: 36.8 µM

Exam item: And then COc1cc(CO)ccc1OC1OC(COC(=O)c2ccc(C)cc2)C(O)C(O)C1O (stereo not drawn) [Compound 9c] , what is it?
Marked response: 12.4 µM

Exam item: And then COc1cc(OC)cc(C(=O)OCC2OC(Oc3c(OC)cc(CO)cc3OC)C(O)C(O)C2O)c1 (stereo not drawn) [Compound 9l] , what is it?
Marked response: 49.6 µM

Exam item: And then COc1cc(C(=O)OC[C@H]2O[C@@H](Oc3ccc(CO)cc3OC)[C@H](O)[C@@H](O)[C@@H]2O)ccc1O [Compound 10] , what is it?
Marked response: 33.5 µM

Exam item: And then COc1cc(CO)ccc1OC1OC(COC(=O)c2ccccc2I)C(O)C(O)C1O (stereo not drawn) [Compound 9g] , what is it?
Marked response: 38.3 µM

Exam item: And then CC[C@@]1(O)C(=O)OCc2c1cc1n(c2=O)Cc2cc3ccccc3nc2-1 [Camptothecin, camptothecin, reference compound] , what is it?
Marked response: 6.75 µM

###

Tested on: DU145 prostate cancer cells
Assay: MTT antiproliferative assay, DU145
Type: cell-based
Settings: Homo sapiens, DU-145; MTT assay; cancer cell line; mean of three independent experiments ± S.E.M.; read-out: IC50 DU145 Prostate
Give pIC50 for every item shown.
Quick note: pIC50 means taking -log10 of the concentration in moles per liter.

Exam item: GET /values?readout=pIC50&system=DU145 prostate cancer cells&item= COc1cc(CO)cc(OC)c1OC1OC(COC(=O)c2ccc(F)cc2)C(O)C(O)C1O (centres unmarked)
Marked response: 4.47

Exam item: And then COc1cc(CO)ccc1OC1OC(COC(=O)c2cccnc2)C(O)C(O)C1O (centres unmarked) , what is it?
Marked response: 4.38

Exam item: And then COc1cc(OC)cc(C(=O)OCC2OC(Oc3ccc(CO)cc3OC)C(O)C(O)C2O)c1 (centres unmarked) , what is it?
Marked response: 4.37

Exam item: And then COc1cc(CO)ccc1OC1OC(COC(=O)c2cc(OC)c(OC)c(OC)c2)C(O)C(O)C1O (centres unmarked) , what is it?
Marked response: 4.31

Exam item: And then COc1cc(CO)ccc1OC1OC(COC(=O)c2ccc(F)cc2)C(O)C(O)C1O (centres unmarked) , what is it?
Marked response: 4.97

Exam item: And then COc1cc(CO)ccc1OC1OC(COC(=O)c2ccccc2)C(O)C(O)C1O (centres unmarked) , what is it?
Marked response: 4.43

Exam item: And then COc1cc(CO)cc(OC)c1OC1OC(COC(=O)c2ccc(C)cc2)C(O)C(O)C1O (centres unmarked) , what is it?
Marked response: 4.37

Exam item: And then COc1cc(CO)cc(OC)c1OC1OC(COC(=O)c2ccccc2I)C(O)C(O)C1O (centres unmarked) , what is it?
Marked response: 4.42
